Test system: HeLa
Experiment: In vitro cytotoxicity against HeLaS3 cell lines.
Format: functional, cell-based
Details: Homo sapiens
quantity name: log10 of IC50 (log10 of the value in nM)

smi=CNc1ccc(/C=C/C(=O)N2C[C@@H](CBr)c3c2cc(OC(=O)N(C)C)c2c3C(=O)[C@](C)(C(=O)OC)N2)cc1 target_or_test_system=HeLa quantity_name="log10 of IC50" experimental_value=2.86
smi=COC(=O)[C@]1(C)Nc2c(OC(=O)N(C)C)cc3c(c2C1=O)[C@H](CBr)CN3C(=O)/C=C/c1ccc(OC)cc1 target_or_test_system=HeLa quantity_name="log10 of IC50" experimental_value=2.71
smi=COC(=O)[C@]1(C)Nc2c(O)cc3c(c2C1=O)[C@H](CBr)CN3C(=O)c1cc2cc(OC)c(OC)c(OC)c2[nH]1 target_or_test_system=HeLa quantity_name="log10 of IC50" experimental_value=-1.55
smi=COC(=O)Nc1ccc2[nH]c(C(=O)N3C[C@@H](CBr)c4c3cc(OC(=O)N(C)C)c3c4C(=O)[C@](C)(C(=O)OC)N3)cc2c1 target_or_test_system=HeLa quantity_name="log10 of IC50" experimental_value=2.77
smi=COC(=O)[C@@]1(C)C(=O)c2c3c(cc(O)c2N1C(=O)N(C)C)N(C(=O)c1cc2cc(OC)c(OC)c(OC)c2[nH]1)C[C@H]3CBr target_or_test_system=HeLa quantity_name="log10 of IC50" experimental_value=1.75
smi=COC(=O)[C@]1(C)Nc2c(OC(=O)N(C)C)cc3c(c2C1=O)[C@H](CBr)CN3C(=O)COc1ccc(OC)cc1 target_or_test_system=HeLa quantity_name="log10 of IC50" experimental_value=1.99
smi=COC(=O)[C@]1(C)Nc2c(OC(=O)N(C)C)cc3c(c2C1=O)[C@H](CBr)CN3C(=O)c1cc2cc(OC)ccc2o1 target_or_test_system=HeLa quantity_name="log10 of IC50" experimental_value=2.60
